# System: SK-MEL-28
# test: NCI tumour cell line growth inhibition, 48 h
Activity calls are given as the source filed them. Rule as the data show it: active = GI50 up to about 1.1 µM and inactive = higher.
Listed here are molecules together with their documented GI50.
readout-kind: GI50

molecule=Cc1cc(CNC(=O)OCc2ccccc2)c(C)c2c1Oc1ccccc1O2 result="> 100 µM (inactive)"
molecule="N#CC1=C(N)OC(c2ccc([N+](=O)[O-])cc2)C1(C#N)C#N (stereo unspecified)" result="9.4 µM (inactive)"
molecule=CC(=O)C1(c2ccccc2)CCN(Cn2sc3nc(C)cc(C)c3c2=O)CC1 result="31.6 µM (inactive)"
molecule=C=CCc1c(Cl)nc(Cl)nc1Cl result="0.431 µM (active)"
molecule=Nc1nc(CCl)nc(N2CCOCC2)n1 result="20.4 µM (inactive)"
molecule="NC1CCCCC1NCCNC1CCCCC1N (stereo unspecified)" result="> 100 µM (inactive)"
